# TESTED ON: T1, mouse bombesin receptor subtype-3 (mouse, UniProt O54798 1-399)
# T1 construct: bombesin receptor subtype-3 of mouse (Mus musculus); also called mBRS3; mouse BRS3; source: HEK293, transiently transfected, on cells
# T1 sequence (looked up): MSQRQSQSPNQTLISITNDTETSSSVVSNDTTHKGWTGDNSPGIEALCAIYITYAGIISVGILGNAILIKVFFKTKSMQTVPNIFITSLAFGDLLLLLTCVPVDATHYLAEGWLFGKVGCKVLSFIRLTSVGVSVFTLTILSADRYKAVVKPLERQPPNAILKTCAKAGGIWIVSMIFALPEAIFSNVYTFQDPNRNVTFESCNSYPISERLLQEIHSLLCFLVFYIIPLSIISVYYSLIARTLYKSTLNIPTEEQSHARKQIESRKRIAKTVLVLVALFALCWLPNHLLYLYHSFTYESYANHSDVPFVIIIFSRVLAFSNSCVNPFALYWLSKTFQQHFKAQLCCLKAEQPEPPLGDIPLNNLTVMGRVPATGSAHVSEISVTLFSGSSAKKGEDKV
# ASSAY DETAILS: radioligand binding; displacement of 50 pM [125I]-Tyr42-GRP by unlabeled peptide on disaggregated transfected HEK293 cells; 1 h at 21°C; 24.5 mM HEPES pH 7.4, 98 mM NaCl; bound tracer separated by centrifugation
# CONDITION NOTES: one partner purified
Where no end group is shown, it is not given here.
ENDPOINT LABEL: Ki

Sure, the documented Ki for APLQPGGSPALTKIYPRGSHWAVGHLM (ends and bridges not checked, gastrin-releasing peptide, 27 residues; No C-terminal amide is printed for this peptide; also called GRP; source: synthetic peptide (Anhui Guoping Pharmaceutical)) [gastrin-releasing peptide, unlabeled ligand peptide of the radioligand binding assays] is > 1 µM

Value source: paper PMC6422423
